assayed-target: Dopamine D2 (Homo sapiens, UniProt P14416)
Sequence (P14416 whole entry): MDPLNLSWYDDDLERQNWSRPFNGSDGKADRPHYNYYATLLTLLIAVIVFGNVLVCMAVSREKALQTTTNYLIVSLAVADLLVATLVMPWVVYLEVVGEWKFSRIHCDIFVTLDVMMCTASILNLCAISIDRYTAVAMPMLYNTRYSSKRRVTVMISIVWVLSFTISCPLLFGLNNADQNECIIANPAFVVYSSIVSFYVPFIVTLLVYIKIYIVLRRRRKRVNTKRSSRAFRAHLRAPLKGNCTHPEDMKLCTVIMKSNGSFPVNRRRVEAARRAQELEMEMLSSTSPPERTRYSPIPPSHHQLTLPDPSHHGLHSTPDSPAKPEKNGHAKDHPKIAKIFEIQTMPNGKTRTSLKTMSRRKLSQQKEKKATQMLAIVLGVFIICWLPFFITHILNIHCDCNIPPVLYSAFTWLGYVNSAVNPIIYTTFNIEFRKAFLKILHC
test-method-notes: Dopamine D2 binding
Counter-ions that a name gives are not always drawn.
measured-attribute: Ki (µM)

[[record]]
molecule = "Cc1ccc2c(c1)Oc1sc(C)cc1C(N1CCN(CC(C)(C)C(=O)O)CC1)=N2 [Example 2, dihydrochloride]"
measured = 2.48


----------
test-method-notes: Plasma clearance, dog
Assay type: in vivo
test-settings: male, Beagle, 1 mg/kg, intravenous, 1 mL/kg of 1.0 mg/mL
Where a name gives a salt, the structure may show the parent alone.
measured-attribute: clearance (mL/min/kg)

[[record]]
compound = "Cc1ccc2c(c1)Oc1sc(C)cc1C(N1CCN(CC(C)(C)C(=O)O)CC1)=N2 [Example 2, dihydrochloride]"
readout_unit = "mL/min/kg"
measured = 2.8


----------
assayed-target: Dopamine Transporter (Homo sapiens, UniProt Q01959)
Sequence (Q01959 whole entry): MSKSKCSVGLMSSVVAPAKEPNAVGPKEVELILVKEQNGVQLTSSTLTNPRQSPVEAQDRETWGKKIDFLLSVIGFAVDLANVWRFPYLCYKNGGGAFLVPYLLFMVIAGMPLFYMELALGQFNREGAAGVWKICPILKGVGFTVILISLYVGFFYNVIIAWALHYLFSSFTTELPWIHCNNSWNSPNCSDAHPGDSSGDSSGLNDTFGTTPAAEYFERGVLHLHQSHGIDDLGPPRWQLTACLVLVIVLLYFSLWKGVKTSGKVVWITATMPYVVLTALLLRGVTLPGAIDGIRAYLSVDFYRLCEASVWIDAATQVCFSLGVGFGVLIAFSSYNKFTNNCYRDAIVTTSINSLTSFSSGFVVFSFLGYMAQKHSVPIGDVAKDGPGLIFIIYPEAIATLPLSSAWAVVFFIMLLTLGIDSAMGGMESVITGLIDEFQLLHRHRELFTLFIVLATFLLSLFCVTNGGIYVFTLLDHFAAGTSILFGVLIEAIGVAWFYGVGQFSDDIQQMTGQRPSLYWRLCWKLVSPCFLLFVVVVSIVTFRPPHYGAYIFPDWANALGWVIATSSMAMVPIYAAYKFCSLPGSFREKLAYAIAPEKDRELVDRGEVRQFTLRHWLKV
Where a name gives a salt, the structure may show the parent alone.
measured-attribute: Ki

[[record]]
compound = "Cc1ccc2c(c1)Oc1sc(C)cc1C(N1CCN(CC(C)(C)C(=O)O)CC1)=N2 [Example 2, dihydrochloride]"
measured = "> 877 nM"


----------
assayed-target: Adrenergic alpha2B (Homo sapiens)
Sequence (P18089 1-450): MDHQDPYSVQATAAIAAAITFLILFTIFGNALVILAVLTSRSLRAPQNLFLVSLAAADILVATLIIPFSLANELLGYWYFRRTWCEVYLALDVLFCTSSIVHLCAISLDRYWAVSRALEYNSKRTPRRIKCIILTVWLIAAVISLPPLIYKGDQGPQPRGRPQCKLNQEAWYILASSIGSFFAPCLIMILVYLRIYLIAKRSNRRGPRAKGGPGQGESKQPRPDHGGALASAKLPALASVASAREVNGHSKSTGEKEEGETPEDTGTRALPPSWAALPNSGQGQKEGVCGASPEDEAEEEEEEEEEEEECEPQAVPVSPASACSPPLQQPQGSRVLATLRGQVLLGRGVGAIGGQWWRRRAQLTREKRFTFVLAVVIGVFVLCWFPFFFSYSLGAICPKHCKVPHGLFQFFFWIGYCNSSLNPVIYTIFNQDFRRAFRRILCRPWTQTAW
pKi: −log10 of the molar value. Where a name gives a salt, the structure may show the parent alone.
measured-attribute: pKi

[[record]]
compound = "Cc1ccc2c(c1)Oc1sc(C)cc1C(N1CCN(CC(C)(C)C(=O)O)CC1)=N2 [Example 2, dihydrochloride]"
assayed_target = "Adrenergic alpha2B (Homo sapiens)"
measured_attribute = "pKi"
measured = 5.43


----------
assayed-target: 5-HT2B (Homo sapiens, UniProt P41595)
Sequence (P41595 whole entry, species assumed): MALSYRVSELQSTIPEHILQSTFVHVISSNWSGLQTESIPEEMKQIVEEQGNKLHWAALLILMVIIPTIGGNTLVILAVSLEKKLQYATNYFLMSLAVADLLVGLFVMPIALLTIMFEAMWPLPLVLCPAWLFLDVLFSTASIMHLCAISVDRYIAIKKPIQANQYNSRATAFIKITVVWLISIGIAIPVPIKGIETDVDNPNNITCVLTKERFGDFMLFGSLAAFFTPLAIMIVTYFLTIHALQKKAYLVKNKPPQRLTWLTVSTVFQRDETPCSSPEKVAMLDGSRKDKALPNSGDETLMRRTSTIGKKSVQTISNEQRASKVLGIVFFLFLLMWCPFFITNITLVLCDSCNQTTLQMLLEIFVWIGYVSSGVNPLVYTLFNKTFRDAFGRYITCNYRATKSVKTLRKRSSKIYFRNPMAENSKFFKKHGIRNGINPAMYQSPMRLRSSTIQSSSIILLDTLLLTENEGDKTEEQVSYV
test-method-notes: 5-HT2B agonist functional activity
pEC50: −log10 of the molar value. Counter-ions that a name gives are not always drawn.
measured-attribute: pEC50

[[record]]
compound = "Cc1ccc2c(c1)Oc1sc(C)cc1C(N1CCN(CC(C)(C)C(=O)O)CC1)=N2 [Example 2, dihydrochloride]"
assayed_target = "5-HT2B (Homo sapiens, UniProt P41595)"
measured_attribute = "pEC50"
measured = "< 5.00"


----------
assayed-target: recombinant 5-HT2A receptor (human) (Homo sapiens, UniProt P28223)
Sequence (P28223 whole entry): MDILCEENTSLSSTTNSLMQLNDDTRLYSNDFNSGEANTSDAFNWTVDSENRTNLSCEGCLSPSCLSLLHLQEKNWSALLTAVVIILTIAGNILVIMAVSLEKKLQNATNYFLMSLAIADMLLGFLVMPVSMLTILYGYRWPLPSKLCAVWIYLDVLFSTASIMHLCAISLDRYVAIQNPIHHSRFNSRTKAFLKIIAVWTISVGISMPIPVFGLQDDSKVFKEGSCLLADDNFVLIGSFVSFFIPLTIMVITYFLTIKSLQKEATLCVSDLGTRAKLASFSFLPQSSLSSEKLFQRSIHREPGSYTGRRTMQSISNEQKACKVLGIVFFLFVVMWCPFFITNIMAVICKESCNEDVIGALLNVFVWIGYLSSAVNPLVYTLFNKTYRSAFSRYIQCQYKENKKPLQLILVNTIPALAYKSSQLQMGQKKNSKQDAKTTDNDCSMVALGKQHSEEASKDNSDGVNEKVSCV
test-method-notes: 5-HT2A competition binding assay ([3H]-Ketanserin, SPA)
Experimental: [^3H]-Ketanserin binding experiments are carried out in SPA 96-well format. Membranes used in this assay are prepared from AV-12 cells stably expressing recombinant 5-HT2A receptor (human). […] Non-specific binding is determined in the presence of 20 μM 1-(1-Naphthyl) piperazine. Samples are incubated for 4 hr. at room temperature (22° C.) and then read in a Microbeta Trilux. […]
Counter-ions that a name gives are not always drawn.
measured-attribute: Ki (nM)

[[record]]
compound = "Cc1ccc2c(c1)Oc1sc(C)cc1C(N1CCN(CC(C)(C)C(=O)O)CC1)=N2 [Example 2, dihydrochloride]"
measured = 11.3

